- PROTOCOL: in vivo
- CONDITION_DESCRIPTION: rodent, iv
PARAMETER: MTD (mg/kg)
Your answer is read as mg/kg, so omit the unit and give the number.

In plain terms, COc1ccc2[nH]c3c(c2c1)CCN[C@]31CS[C@@H]2c3c(OC(C)=O)c(C)c4c(c3[C@H](COC1=O)N1[C@@H]2[C@H]2c3c(cc(C)c(OC)c3O)C[C@@H]([C@@H]1O)N2C)OCO4 [PM01183, lurbinectedin] has a documented MTD of 0.3
